measurementLabel: melting point

Completed entries (count: 3):
Report melting point for COc1ccc(/C=C(\C(N)=O)S(=O)(=O)Cc2ccc(Cl)cc2Cl)cc1O please.
185 to 189 °C

Do the same for COc1ccc(CS(=O)(=O)/C(C#N)=C/c2ccc(OC)c(OC)c2)cc1 [Example 26] please
156 to 158 °C

Do the same for Cc1ccc(C)c(/C=C(\C#N)S(=O)(=O)Nc2ccc(F)cc2)c1 please
161 to 164 °C

Further cases:
Report melting point for N#C/C(=C\c1c[nH]c2ccccc12)S(=O)(=O)Nc1ccc(Cl)cc1 please.
216 to 217 °C

Do the same for N#C/C(=C\c1ccc(O)c([N+](=O)[O-])c1)S(=O)(=O)Cc1ccc(Cl)cc1Cl please
169 to 171 °C
